Values compiled from ChEMBL document CHEMBL1126811.

target: D(2) dopamine receptor (Rattus norvegicus, UniProt P61169); test: Inhibition constant against dopamine receptor D2 in rat
Sequence (P61169 whole entry): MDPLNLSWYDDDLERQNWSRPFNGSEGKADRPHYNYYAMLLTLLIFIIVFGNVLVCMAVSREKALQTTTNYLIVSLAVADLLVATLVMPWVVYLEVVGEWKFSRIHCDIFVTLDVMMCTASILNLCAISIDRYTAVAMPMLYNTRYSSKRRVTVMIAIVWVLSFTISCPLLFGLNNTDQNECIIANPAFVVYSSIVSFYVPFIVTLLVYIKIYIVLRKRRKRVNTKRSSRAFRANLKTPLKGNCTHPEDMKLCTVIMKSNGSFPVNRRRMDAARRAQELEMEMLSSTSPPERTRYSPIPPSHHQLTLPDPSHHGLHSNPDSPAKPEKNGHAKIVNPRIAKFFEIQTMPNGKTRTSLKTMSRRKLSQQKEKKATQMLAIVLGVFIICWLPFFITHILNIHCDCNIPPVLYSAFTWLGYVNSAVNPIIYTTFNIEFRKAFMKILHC
Overview of reported log10(Ki) across a group of molecules:
In plain terms, each number is the log10 of measured Ki in nM.

Known results for molecules:
molecule: CCN1CCC[C@H]1CNC(=O)c1cc(I)cc(OC)c1OC [EPIDEPRIDE]
measurement-target: D(2) dopamine receptor (Rattus norvegicus, UniProt P61169)
data-value: -1.60
--
molecule: CCN1CCC[C@H]1CNC(=O)c1cc(I)cc2c1OCC2
measurement-target: D(2) dopamine receptor (Rattus norvegicus, UniProt P61169)
data-value: -0.97
--
molecule: COc1cc(Br)cc(C(=O)NC[C@@H]2CCCN2Cc2ccc(F)cc2)c1OC
measurement-target: D(2) dopamine receptor (Rattus norvegicus, UniProt P61169)
data-value: -0.83
--
molecule: CCN1CCC[C@H]1CNC(=O)c1cc(CCCF)cc(OC)c1OC
measurement-target: D(2) dopamine receptor (Rattus norvegicus, UniProt P61169)
data-value: -1.70
--
molecule: CCN1CCC[C@@H]1CNC(=O)c1cccc(OC)c1OCCF
measurement-target: D(2) dopamine receptor (Rattus norvegicus, UniProt P61169)
data-value: 1.11

### Prompt Record request: log10(Ki) value, item CCN1CCC[C@H]1CNC(=O)c1c(OC)ccc(I)c1O [IOLOPRIDE]
### Response -0.37
